# experimentalTarget: T1, FJG4P (artificial (motif derived from human …))
# T1 chain: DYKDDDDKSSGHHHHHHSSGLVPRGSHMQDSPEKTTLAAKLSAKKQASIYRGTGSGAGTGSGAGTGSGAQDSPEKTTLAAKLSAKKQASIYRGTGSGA
# methodDescription: smTIRFM (koff/kon); kon 0.01e9 M-1 s-1, koff 0.33 s-1; EMSA: DNA annealed in 200 mM Tris pH 7.4, 100 mM KCl, 1 mM EDTA; binding 10 min at 25 C, native PAGE; smTIRFM: 100 pM tethered DNA, 100-5000 pM protein, buffer
# experimentalContext: protein: recombinant; tags: N-terminal FLAG-6xHis; label: 3' biotin on strand 2; 18 bp duplex with 3' ssDNA tail folded as G4, mixed topology
quantityMeasured: Kd (nM)
Answer with a number only, understood to be in nM.

Lookup result for hTelG4 (smTIRFM tethering) (mixed) DNA 1: TGGCGACGGCAGCGAGGCTTAGGGTTAGGGTTAGGGTTTAGGGTTAGGG DNA 2: GCCTCGCTGCCGTCGCCA ; measured Kd: 32.7
